experiment: Air dilution olfactometry sensory panel, indole vs indole + compound; type: in vivo, human; design: key: linear labeled scale, no to very animal/fecal/tar; settings: indole + compound at individualized iso-intense concentrations; linear labeled scale; indole alone 6.9 ± 0.2
Each entry below lists one item and its recorded Animal/Fecal/Tar score value.

>  <molecule>
Cc1ccc2c(c1)CC(C)(CO)C2 (stereo not shown)

>  <Animal/Fecal/Tar score>
1.3

$$$$
>  <molecule>
Cc1cc(C)c2c(c1)CC(C)(CO)C2 (stereo not shown)

>  <Animal/Fecal/Tar score>
2.6

$$$$
>  <molecule>
Cc1ccc2c(c1)CC(CO)C2 (stereo not shown)

>  <Animal/Fecal/Tar score>
2.1

$$$$
>  <molecule>
COCC1(C)Cc2ccc(C)cc2C1 (stereo not shown)

>  <Animal/Fecal/Tar score>
3.5

$$$$
>  <molecule>
CC(=O)OCC1(C)Cc2ccccc2C1

>  <Animal/Fecal/Tar score>
2.7

$$$$
>  <molecule>
CC1(CO)Cc2ccccc2C1

>  <Animal/Fecal/Tar score>
3.1

$$$$
>  <molecule>
CC(=O)C1(C)Cc2ccc(C)cc2C1 (stereo not shown)

>  <Animal/Fecal/Tar score>
2.2

$$$$
